FYI, the data here is from patent US20220332804A1.

Target: T1, cynomolgus monkey C2 (cynomolgus monkey, UniProt G8F3W0 21-752)
T1 construct: also called cyno C2
T1 sequence: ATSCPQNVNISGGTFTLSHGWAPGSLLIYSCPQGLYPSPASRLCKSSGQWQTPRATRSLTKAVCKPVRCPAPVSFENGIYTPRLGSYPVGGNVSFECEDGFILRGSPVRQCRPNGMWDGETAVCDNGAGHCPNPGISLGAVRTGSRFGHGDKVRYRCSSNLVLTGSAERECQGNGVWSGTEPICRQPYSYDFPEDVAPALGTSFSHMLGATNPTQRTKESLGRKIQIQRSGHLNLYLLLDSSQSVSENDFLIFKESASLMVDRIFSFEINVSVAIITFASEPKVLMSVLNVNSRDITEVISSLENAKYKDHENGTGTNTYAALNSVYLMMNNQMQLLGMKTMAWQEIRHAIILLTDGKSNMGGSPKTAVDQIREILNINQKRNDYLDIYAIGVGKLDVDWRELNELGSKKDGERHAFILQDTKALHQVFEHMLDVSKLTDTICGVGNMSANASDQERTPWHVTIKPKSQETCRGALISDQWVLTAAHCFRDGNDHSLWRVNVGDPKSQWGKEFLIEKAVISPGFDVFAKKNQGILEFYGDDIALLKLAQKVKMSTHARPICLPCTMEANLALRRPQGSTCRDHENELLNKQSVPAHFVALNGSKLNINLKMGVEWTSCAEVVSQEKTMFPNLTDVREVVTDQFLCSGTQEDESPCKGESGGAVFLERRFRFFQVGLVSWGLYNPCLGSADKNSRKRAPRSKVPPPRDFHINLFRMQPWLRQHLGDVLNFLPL
Test: SPR, mAb captured, cyno C2 analyte, pH 7.3
pKd: −log10 of the molar value.
MEASUREMENT_NAME: pKd

binder="RF16-203 (antibody, V domains shown, Human antibody from a phage display library) VH: EVQLLESGGGLVQPGGSLRLSCAASGFTFSRYYMMWVRQAPGKGLEWVSSIGSSGGTTNYADSVKGRFTISRDNSKNTLYLQMNSLRAEDTATYYCAKGGMVLGVVNIWGQGTLVTVSS VL: QSALTQPPSVSVSPGQTATITCSGDKLGEKYVSWYQQKPGQSPVVVIFQDIKRPSGIPERFSGSNSGNTATLTISGTQAMDEADYYCQTWGTGGIQVFGGGTKLTVLR" recorded_number=8.55
binder="RF16-242G (antibody, V domains shown, Germlined version of RF16-242) VH: EVQLVQSGAEVKKPGESLKISCKGSGYSFTSYWIGWVRQMPGKGLEWMGIIYPGDSDTRYSPSFQGQVTISADKSISTAYLQWSSLKASDTAMYYCARRGHYGDYFDYWGQGTLVTVSS VL: SYELTQPPSVSVSPGQTARITCSGDALPKKYAYWYQQKSGQAPVLVIYEDRRRPSGIPERFSGSSSGTMATLTISGAQVEDEADYYCYSRDRAGNQRVFGGGTQLTVLG" recorded_number=8.36
binder="RF16-203G (antibody, V domains shown) VH: EVQLLESGGGLVQPGGSLRLSCAASGFTFSRYYMMWVRQAPGKGLEWVSSIGSSGGTTNYADSVKGRFTISRDNSKNTLYLQMNSLRAEDTAVYYCAKGGMVLGVVNIWGQGTLVTVSS VL: SYELTQPPSVSVSPGQTASITCSGDKLGEKYVSWYQQKPGQSPVLVIYQDIKRPSGIPERFSGSNSGNTATLTISGTQAMDEADYYCQTWGTGGIQVFGGGTKLTVLG" recorded_number=6.31
binder="RF16-214G (antibody, V domains shown) VH: EVQLLESGGGLVQPGGSLRLSCAASGFTFSWYQMMWVRQAPGKGLEWVSRIYPSGGGTAYADSVKGRFTISRDNSKNTLYLQMNSLRAEDTAVYYCARDAGYGDNWGQGTLVTVSS VL: SYELTQPPSVSVSPGQTASITCSGDKLGEKYASWYQQKPGQSPVLVIYQDRKRPSGIPERFSGSNSGNTATLTISGTQAMDEADYYCQAWDTRAVVFGGGTKLTVLG" recorded_number=7.38
binder="RF16-242 (antibody, V domains shown) VH: EVQLLQSGAEVKKPGESLKISCKGSGYSFTSYWIGWVRQMPGKGLEWMGIIYPGDSDTRYSPSFQGQVTISADKSISTAYLQWSSLKASDTAMYYCARRGHYGDYFDYWGQGTLVTVSS VL: SYELTQPPSVSVSPGQTARITCSGDALPKKYAYWYHQKSGQAPVLVIYEDRRRPSEIPERFSGSSSGTMATLTITGAQVEDEGVYFCYSRDRAGNQRVFGGGTQLTVLG" recorded_number=8.28
